# Assay system: Nucleoli Translocation, AR (gene 367)
# Assay: UPITT_HCI_U2OS_AR_TIF2_Nucleoli_Agonist: University of Pittsburgh U2OS Androgen Receptor-Transcriptional Intermediary Factor 2 (AR-TIF2) Agonism High Content Imaging Assay for Nucleoli Translocation (AID 2283998)
Records with an inconclusive call do not appear. Calls of active or inactive are those of the source. Rule for the calls: active = hit-call score of the fitted dose curve at least 0.9, where 1 is the maximum; inconclusive = response in the unintended direction; inactive = score below 0.9.
// allowed return values: TRUE for active, FALSE for inactive

Past entries and their recorded results:
* CC1=C2C[C@H]3[C@@H](CC=C4C[C@@H](O)CC[C@@]43C)[C@@H]2CC[C@]12O[C@@H]1C[C@H](C)CN[C@H]1[C@H]2C | FALSE
* CCC(=O)O[C@H]1CC[C@H]2[C@@H]3CCC4=CC(=O)CC[C@]4(C)[C@H]3CC[C@]12C | TRUE
* c1cc2ccc3cccc4ccc(c1)c2c34 | FALSE
* O=C(NC(=O)c1c(F)cccc1F)Nc1cc(Cl)c(OC(F)(F)C(F)F)c(Cl)c1 | FALSE

**Q:** Test call, this molecule: NS(=O)(=O)C(F)(F)C(F)(F)C(F)(F)C(F)(F)C(F)(F)C(F)(F)C(F)(F)C(F)(F)F
**A:** TRUE

Source of measurements: PubChem BioAssay (EPA / NIEHS)
